Value source: the supplement of paper PMC11246515

assay: total protein half-life in vivo (active degradation + dilution); higher = more stable protein; conditions: E. coli NCM3722 delta-clpP; growth: N-lim chemostat; doubling time 6 h
Provide the recorded total protein half-life in vivo for the entries that follow.
One number for each entry, in h.

Use the examples below as a reference point.
{"seq": "MERIVVTLGERSYPITIASGLFNEPASFLPLKSGEQVMLVTNETLAPLYLDKVRGVLEQAGVNVDSVILPDGEQYKSLAVLDTVFTALLQKPHGRDTTLVALGGGVVGDLTGFAAASYQRGVRFIQVPTTLLSQVDSSVGGKTAVNHPLGKNMIGAFYQPASVVVDLDCLKTLPPRELASGLAEVIKYGIILDGAFFNWLEENLDALLRLDGPAMAYCIRRCCELKAEVVAADERETGLRALLNLGHTFGHAIEAEMGYGNWLHGEAVAAGMVMAARTSERLGQFSSAETQRIITLLKRAGLPVNGPREMSAQAYLPHMLRDKKVLAGEMRLILPLAIGKSEVRSGVSHELVLNAIADCQSA", "total protein half-life in vivo / h": 3.73}
{"seq": "MRLFNWRRQAVLNAMPLVKPDQVRTPWHEFWRRFRRQHMAMTAALFVILLIVVAIFARWIAPYDAENYFDYDNLNNGPSLQHWFGVDSLGRDIFSRVLVGAQISLAAGVFAVFIGAAIGTLLGLLAGYYEGWWDRLIMRICDVLFAFPGILLAIAVVAVLGSGIANVIIAVAIFSIPAFARLVRGNTLVLKQQTFIESARSIGASDMTVLLRHILPGTVSSIVVFFTMRIGTSIISAASLSFLGLGAQPPTPEWGAMLNEARADMVIAPHVAVFPALAIFLTVLAFNLLGDGLRDALDPKIKG", "total protein half-life in vivo / h": 6.63}
{"seq": "MHYQPKQDLLNDRIILVTGASDGIGREAAMTYARYGATVILLGRNEEKLRQVASHINEETGRQPQWFILDLLTCTSENCQQLAQRIAVNYPRLDGVLHNAGLLGDVCPMSEQNPQVWQDVMQVNVNATFMLTQALLPLLLKSDAGSLVFTSSSVGRQGRANWGAYAASKFATEGMMQVLADEYQQRLRVNCINPGGTRTAMRASAFPTEDPQKLKTPADIMPLYLWLMGDDSRRKTGMTFDAQPGRKPGISQ", "total protein half-life in vivo / h": 4.29}

Please supply total protein half-life in vivo for each of the following items, keeping them in order.
1. MKAARQQAIVDLLLNHTSLTTEALSEQLKVSKETIRRDLNELQTQGKILRNHGRAKYIHRQNQDSGDPFHIRLKSHYAHKADIAREALAWIEEGMVIALDASSTCWYLARQLPDINIQVFTNSHPICHELGKRERIQLISSGGTLERKYGCYVNPSLISQLKSLEIDLFIFSCEGIDSSGALWDSNAINADYKSMLLKRAAQSLLLIDKSKFNRSGEARIGHLDEVTHIISDERQVATSLVTA [P0ACK8]
2. MKKPLRQQNRQIISYVPRTEPAPPEHAIKMDSFRDVWMLRGKYVAFVLMGESFLRSPAFTVPESAQRWANQIRQEGEVTE [P0AE60]
3. MSKAGASLATCYGPVSADVIAKAENIRLLILDVDGVLSDGLIYMGNNGEELKAFNVRDGYGIRCALTSDIEVAIITGRKAKLVEDRCATLGITHLYQGQSNKLIAFSDLLEKLAIAPENVAYVGDDLIDWPVMEKVGLSVAVADAHPLLIPRADYVTRIAGGRGAVREVCDLLLLAQGKLDEAKGQSI [P0ABZ4]
4. MTQYSSLLRGLAAGSAFLFLFAPTAFAAEQTVEAPSVDARAWILMDYASGKVLAEGNADEKLDPASLTKIMTSYVVGQALKADKIKLTDMVTVGKDAWATGNPALRGSSVMFLKPGDQVSVADLNKGVIIQSGNDACIALADYVAGSQESFIGLMNGYAKKLGLTNTTFQTVHGLDAPGQFSTARDMALLGKALIHDVPEEYAIHKEKEFTFNKIRQPNRNRLLWSSNLNVDGMKTGTTAGAGYNLVASATQGDMRLISVVLGAKTDRIRFNESEKLLTWGFRFFETVTPIKPDATFVTQRVWFGDKSEVNLGAGEAGSVTIPRGQLKNLKASYTLTEPQLTAPLKKGQVVGTIDFQLNGKSIEQRPLIVMENVEEGGFFGRVWDFVMMKFHQWFGSWFS
5. MRLLPLVAAATAAFLVVACSSPTPPRGVTVVNNFDAKRYLGTWYEIARFDHRFERGLEKVTATYSLRDDGGLNVINKGYNPDRGMWQQSEGKAYFTGAPTRAALKVSFFGPFYGGYNVIALDREYRHALVCGPDRDYLWILSRTPTISDEVKQEMLAVATREGFDVSKFIWVQQPGS [P0A901]

# output
1: 2.74; 2: 5.19; 3: 5.24; 4: 6.56; 5: 6.28

// input: 4 sequences below; output: total protein half-life in vivo for each
1. MNIRDLEYLVALAEHRHFRRAADSCHVSQPTLSGQIRKLEDELGVMLLERTSRKVLFTQAGMLLVDQARTVLREVKVLKEMASQQGETMSGPLHIGLIPTVGPYLLPHIIPMLHQTFPKLEMYLHEAQTHQLLAQLDSGKLDCVILALVKESEAFIEVPLFDEPMLLAIYEDHPWANRECVPMADLAGEKLLMLEDGHCLRDQAMGFCFEAGADEDTHFRATSLETLRNMVAAGSGITLLPALAVPPERKRDGVVYLPCIKPEPRRTIGLVYRPGSPLRSRYEQLAEAIRARMDGHFDKVLKQAV [P0ACQ4]
2. MILFVGFLLMEIVMPQISRTALVPYSAEQMYQLVNDVQSYPQFLPGCTGSRILESTPGQMTAAVDVSKAGISKTFTTRNQLTSNQSILMNLVDGPFKKLIGGWKFTPLSQEACRIEFHLDFEFTNKLIELAFGRVFKELAANMVQAFTVRAKEVYSAR [P0AGL5]
3. MVKSQPILRYILRGIPAIAVAVLLSACSANNTAKNMHPETRAVGSETSSLQASQDEFENLVRNVDVKSRIMDQYADWKGVRYRLGGSTKKGIDCSGFVQRTFREQFGLELPRSTYEQQEMGKSVSRSNLRTGDLVLFRAGSTGRHVGIYIGNNQFVHASTSSGVIISSMNEPYWKKRYNEARRVLSRS [P0AFV4]
4. MPRANEIKKGMVLNYNGKLLLVKDIDIQSPTARGAATLYKMRFSDVRTGLKVEERFKGDDIVDTVTLTRRYVDFSYVDGNEYVFMDKEDYTPYTFTKDQIEEELLFMPEGGMPDMQVLTWDGQLLALELPQTVDLEIVETAPGIKGASASARNKPATLSTGLVIQVPEYLSPGEKIRIHIEERRYMGRAD [P0A6N8]

# output
1: 6.57; 2: 0.857; 3: 2.09; 4: 4.37
